- Test details: Quantitative High-Throughput drug screen in 47 multiple myeloma cell lines against the NCATS MIPE library collection: ARP1_JJKsccF8 cell viability assay (AID 1918928; note: nearly all actives have a fitted effect of over 40% in size; note: potency is the fitted concentration of half-maximal effect)
- Run parameters: ARP1 myeloma cells viability, CellTiter-Glo ATP, 48 h; series mostly up to 45.8 µM
Records with an inconclusive call do not appear. Calls of active or inactive are those of the source. Calls come from the whole dose curve; as a rule, active = well fitted cell-killing curve with a large enough effect; inconclusive = small, poorly fitted or top-dose-only effect, or effect the other way; inactive = no such curve, though single readings can be large or run the other way.
Measured parameter: Potency

molecule=O=C(C=Cc1ccc(/C=C/C(=O)Nc2ccc(C3=NCCN3)cc2)cc1)Nc1ccc(C2=NCCN2)cc1 result=inactive
molecule=COc1ccc(C2=N[C@H](c3ccc(Cl)cc3)[C@H](c3ccc(Cl)cc3)N2C(=O)N2CCNC(=O)C2)c(OC(C)C)c1 result="16.6 µM (active)"
molecule=CCCc1nc2c(C)cc(-c3nc4ccccc4n3C)cc2n1Cc1ccc(-c2ccccc2C(=O)O)cc1 result=inactive
molecule="CC(C)NCC(O)COc1ccc(COCCOC(C)C)cc1 (centres undefined)" result=inactive
molecule=CNC(=O)c1ccc(N2C(=S)N(c3ccc(C#N)c(C(F)(F)F)c3)C(=O)C2(C)C)cc1F result=inactive
molecule=NC[C@H](O)c1ccc(O)c(O)c1 result=inactive
molecule=COc1ccc2c3n(c(=NC(=O)c4cccnc4)nc2c1OC)CCN3 result="2.64 µM (active)"
molecule="COc1ccc(CC2=NN3C([C@@H](CCc4ccccc4)[C@@H](C)O)=NC(C)C3C(=O)N2)cc1OC (some centres undefined)" result=inactive
molecule=Cc1cc([C@@H](C)Nc2ccccc2C(=O)O)c2nc(N3CCOCC3)cc(=O)n2c1 result="0.481 µM (active)"
molecule=CNCc1ccc(-c2[nH]c3cc(F)cc4c3c2CCNC4=O)cc1 result=inactive
molecule=C[C@]1(c2nc3c(C(N)=O)cccc3[nH]2)CCCN1 result=inactive
molecule=CS(=O)(=O)c1ccc(C(=O)Nc2ccc(Cl)c(-c3ccccn3)c2)c(Cl)c1 result=inactive
molecule=CC(C)C[C@H](NC(=O)[C@@H](O)[C@H](N)Cc1ccccc1)C(=O)O result="16.6 µM (active)"
molecule=CCn1c(-c2nonc2N)nc2cnc(Oc3cccc(NC(=O)c4ccc(OCCN5CCOCC5)cc4)c3)cc21 result="18.7 µM (active)"
molecule=O=C1[C@H](Cc2ccc(O)cc2)N2C(=O)CCN(C(=O)NCc3ccccc3)[C@H]2CN1Cc1cccc2ccccc12 result="4.18 µM (active)"
molecule=Cc1cc(C=c2sc3nc4ccccc4n3c2=O)c(C)n1-c1ccccc1 result="6.62 µM (active)"
molecule="OC(CN1CCC(Cc2ccc(F)cc2)CC1)c1ccc(Cl)cc1 (centres undefined)" result=inactive
molecule=NS(=O)(=O)c1cc2c(cc1Cl)NC=NS2(=O)=O result=inactive
molecule=Cc1cc(SCc2sc(-c3ccc(C(F)(F)F)cc3)nc2C)ccc1OCC(=O)O result=inactive
molecule=O=C(O)CCc1ccc(NCc2cccc(Oc3ccccc3)c2)cc1 result=inactive
molecule=NC(=O)c1cnccn1 result=inactive
molecule=CCn1c(-c2nonc2N)nc2c(C#CC(C)(C)O)ncc(OC[C@H]3CCCNC3)c21 result="0.59 µM (active)"
molecule="Cc1c(C)c2c(c(C)c1O)CCC(C)(COc1ccc(CC3SC(=O)NC3=O)cc1)O2 (centres undefined)" result=inactive
molecule=CC1(C)SCCN(S(=O)(=O)c2ccc(OCC#CCO)cc2)[C@@H]1C(=O)NO result="2.35 µM (active)"
molecule=Cc1cc2c(C(C)C)c(O)c(O)c(C=O)c2c(O)c1-c1c(C)cc2c(C(C)C)c(O)c(O)c(C=O)c2c1O result="10.5 µM (active)"
molecule=CC(C)OC(=O)C1=CN(C(=O)c2ccc(F)c(F)c2)CC(C)(C)c2c1[nH]c1ccccc21 result=inactive
molecule=CCC(C)(C)C(=O)O[C@H]1C[C@@H](C)C=C2C=C[C@H](C)[C@H](CC[C@@H]3C[C@@H](O)CC(=O)O3)[C@H]21 result="20.9 µM (active)"
molecule=COc1ccccc1[C@H](c1cccc2ccccc12)[C@@](C)(C#N)C(=O)N1CCC(c2cccc(C(F)(F)F)c2)CC1 result="8.33 µM (active)"
molecule=COc1ccc(-c2ccc3c(N4CCOCC4)nc(N4C[C@@H](C)O[C@@H](C)C4)nc3n2)cc1CO result="0.264 µM (active)"
